OBSERVATION TYPE: melting point

Cc1cccc(COc2cccc(OCc3ccc4cc(F)cc(F)c4n3)c2)c1OCC(=O)O; 137 to 141 °C
O=C(Nc1nc(C(F)(F)F)c(I)s1)c1cc(C(F)(F)F)cc(C(F)(F)F)c1; 172 to 173 °C

### Prompt Given `COC(=O)c1ccc(COc2cc(C(C)(C)C)nn2Cc2ccc(C(=O)OC)cc2)cc1` , state its recorded melting point.
### Response 93 to 94 °C

### Prompt Given `C=CCc1c(O)c(Cl)cc(F)c1N1C(=O)c2ccccc2C1=O` , state its recorded melting point.
### Response 134 to 136 °C

### Prompt Given `CC(=O)c1cnn(-c2ccnc3cc(Cl)ccc23)c1` , state its recorded melting point.
### Response 190 to 192 °C

### Prompt Given `COc1ccc(-c2nnc(Nc3ccc4cccnc4c3)cc2-c2ccc(C(F)(F)F)cc2)cc1` , state its recorded melting point.
### Response 215 to 217 °C

### Prompt Given `CC(=O)OCc1cc2ccccc2[nH]1` , state its recorded melting point.
### Response 112 °C

* * *

Below, each entry is listed alongside its reported melting point.

# count of solved cases: 5
CC(C)(C)c1ccc(-c2ccc3nncn3n2)cc1; 270 to 275 °C
O=C1OC(O)c2cccc(Cl)c21 (centres undefined); 140 to 145 °C
Nc1ncnc2sc(Cc3ccncc3)c(-c3ccc(NC(=O)Nc4cccc(C(F)(F)F)c4)cc3)c12; 162 to 166 °C
Cc1ccc(S(=O)(=O)n2ccc3c(-c4c(C)nc5ccc(Cl)nn45)ccnc32)cc1; 138 to 140 °C
O=C(O)c1c2c(nc3ccc(Br)cc13)-c1ccc(-c3ccccc3F)cc1CCC2; > 300 °C

Please find the next molecule below.
### Prompt Given `O=C1N(N(c2ccccc2)c2ccccc2)c2ccccc2C1(Cc1ccncc1)Cc1ccncc1` , state its recorded melting point.
### Response 184 to 186 °C

* * *

Below, each entry is listed alongside its reported melting point.

# count of solved cases: 5
CC(=O)n1nc(CN2CCc3ccccc3C2)c2ccc(F)cc21; 106 to 107 °C
CCn1cc(C(=O)O)c(=O)c2cc(F)c(N3CCN(C)C(c4sc5ccccc5c4C)C3)cc21 (stereo unspecified); 253 to 254 °C
O=C(O)CCOCCCc1ccnc(-c2nc(=O)c3ccccc3s2)c1; 154 °C
COC(=O)C1=C(C)NC(C)=C(C(=O)OCCOc2ccc(CCOC(C)=O)cc2)C1c1cccc([N+](=O)[O-])c1 (stereo unspecified); 110 °C
Cc1c(C(=O)Nc2ccc(OCCCN3CCOCC3)c(C#N)c2)cnn1-c1ccc(C(F)(F)F)cc1; 172 to 174 °C

### Prompt Given `CCNC(=O)c1nc2cc(NC(=O)c3c(C(=O)N4CCC4)cnn3C)ccn2n1` , state its recorded melting point.
### Response 217 to 229 °C

### Prompt Given `COCn1c(-c2nccs2)c(Cl)c2cccc([N+](=O)[O-])c21` , state its recorded melting point.
### Response 106 to 107 °C

### Prompt Given `C[C@]1(COc2ccc3nc(N4CCN(Cc5ccc(OC(F)(F)F)cc5)CC4)sc3c2)Cn2cc([N+](=O)[O-])nc2O1` , state its recorded melting point.
### Response 206 to 207 °C

### Prompt Given `O=c1nc(-c2cnccn2)sc2ccccc12` , state its recorded melting point.
### Response 241 to 242 °C

### Prompt Given `COc1ccc(C(=O)Nc2ccccc2Nc2ccccc2)cc1` , state its recorded melting point.
### Response 148 to 150 °C

### Prompt Given `Cc1cc(C(=O)O)ccc1C1=CCCCC1` , state its recorded melting point.
### Response 173 to 175 °C

### Prompt Given `CC(C)(C)c1cc(CON2C(=O)COc3ccc(C=C4SC(=S)NC4=O)cc32)cc(C(C)(C)C)n1` , state its recorded melting point.
### Response > 300 °C

All values here come from a melting point compilation (Tetko et al.; mined from patent text by program, amines drawn as free bases though some values may be those of a salt).
